Each recorded value in this set is attributed to PubChem BioAssay AID1259348.

- target.of.assay: Insulin-degrading enzyme (Homo sapiens) (UniProt P14735)
- Sequence (P14735 42-1019 limits assumed): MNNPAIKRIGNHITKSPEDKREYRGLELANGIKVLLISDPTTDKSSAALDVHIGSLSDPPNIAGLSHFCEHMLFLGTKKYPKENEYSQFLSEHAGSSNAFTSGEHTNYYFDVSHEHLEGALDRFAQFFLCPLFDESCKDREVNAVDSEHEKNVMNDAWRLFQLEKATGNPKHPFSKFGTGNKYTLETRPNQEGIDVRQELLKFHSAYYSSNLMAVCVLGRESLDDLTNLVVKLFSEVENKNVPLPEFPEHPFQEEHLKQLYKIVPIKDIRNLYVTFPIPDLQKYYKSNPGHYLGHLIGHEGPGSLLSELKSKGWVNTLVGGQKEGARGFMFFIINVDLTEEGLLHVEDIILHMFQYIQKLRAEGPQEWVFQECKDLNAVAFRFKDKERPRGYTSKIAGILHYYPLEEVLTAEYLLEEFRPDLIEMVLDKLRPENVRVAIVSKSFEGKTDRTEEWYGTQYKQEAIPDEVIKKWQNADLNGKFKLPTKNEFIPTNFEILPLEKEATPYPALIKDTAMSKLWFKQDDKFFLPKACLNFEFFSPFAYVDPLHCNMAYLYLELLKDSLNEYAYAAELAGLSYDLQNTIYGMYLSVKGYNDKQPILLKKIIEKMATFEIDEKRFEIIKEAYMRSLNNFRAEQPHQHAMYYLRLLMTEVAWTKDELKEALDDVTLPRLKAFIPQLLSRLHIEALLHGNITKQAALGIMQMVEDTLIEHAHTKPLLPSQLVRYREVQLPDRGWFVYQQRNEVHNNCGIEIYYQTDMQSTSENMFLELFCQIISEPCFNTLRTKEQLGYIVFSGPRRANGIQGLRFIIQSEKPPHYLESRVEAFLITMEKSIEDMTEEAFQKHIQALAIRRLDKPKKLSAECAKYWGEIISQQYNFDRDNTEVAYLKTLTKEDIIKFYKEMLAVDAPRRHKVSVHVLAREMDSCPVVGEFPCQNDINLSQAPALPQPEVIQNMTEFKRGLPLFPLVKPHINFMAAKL
- assay.procedure: inhibitors of IDE decapeptide proteolysis, dose response, counter-screen for IDE exo-site inhibitor project, biochemical, kinetic mode (AID 1259348)
- condition: purified human IDE, fluorogenic decapeptide proteolysis
Activity calls are given as the source filed them.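 The calls were made as follows: active = any compound with an IC50 of 100 nM or lower; inactive = the rest.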
Valid outcomes are listed here; reply with one: True = active, False = inactive

Assay result, entry Cc1ccccc1-c1ccc([C@H]2[C@@H](CO)N3CCCCN(S(=O)(=O)Cc4ccccc4)C[C@@H]23)cc1 — outcome?
True

And then Cc1ccccc1-c1ccc(C2[C@@H]3CN(C(=O)Cc4ccncc4)C[C@H]2N3)cc1 (some centres not stated) , what is it?
True

And then Cc1cccc(-c2ccc([C@H]3[C@@H](CO)N4CCCCN(C(=O)c5ccncc5)C[C@H]34)cc2)c1 , what is it?
True

And then COc1ccccc1C#Cc1ccc([C@H]2[C@H]3CN(C(=O)C4CCC4)CCCCN3[C@H]2CO)cc1 , what is it?
False

And then Cc1ccccc1-c1ccc([C@@H]2[C@H](CO)N3CCCCN(C(=O)Cc4ccccn4)C[C@@H]23)cc1 , what is it?
True

And then Cc1ccccc1-c1ccc([C@H]2[C@@H](CO)N3C(=O)CN(C(=O)c4cccnc4)C[C@H]23)cc1 , what is it?
True

And then Cc1ccccc1-c1ccc([C@H]2[C@H](CO)N3C(=O)CN(C(=O)Nc4cccc(F)c4)C[C@@H]23)cc1 , what is it?
True

And then Cc1ccccc1-c1ccc([C@@H]2[C@@H](CO)N3C(=O)CN(C(=O)Cc4ccccn4)C[C@@H]23)cc1 , what is it?
True

And then COc1ccccc1-c1ccc([C@H]2[C@@H](CO)N3CCCCN(C(=O)c4cccnc4)C[C@H]23)cc1 , what is it?
True

And then COc1cccc(-c2ccc([C@@H]3[C@@H](CO)N4CCCCN(CC5CCOCC5)C[C@@H]34)cc2)c1 , what is it?
True

And then Cc1ccccc1-c1ccc([C@H]2[C@H](CO)N3C(=O)CN(C(=O)Cc4ccccn4)C[C@@H]23)cc1 , what is it?
True

And then Cc1cccc(-c2ccc([C@@H]3[C@@H](CO)N4CCCCN(S(=O)(=O)c5cccs5)C[C@@H]34)cc2)c1 , what is it?
True

And then CC(=O)N1CCCCN2[C@H](CO)[C@@H](c3ccc(-c4cccc(C)c4)cc3)[C@@H]2C1 , what is it?
True

And then COCC(=O)N1CCCCN2[C@H](CO)[C@@H](c3ccc(-c4cccc(C)c4)cc3)[C@@H]2C1 , what is it?
True

And then Cc1cccc(-c2ccc([C@@H]3[C@H](CO)N4CCCCN(S(=O)(=O)c5ccccc5F)C[C@@H]34)cc2)c1 , what is it?
True

And then CO[C@@H]1CN(C)C(=O)c2cc(NC(=O)c3ccc(Oc4ccccc4)cc3)ccc2OC[C@@H](C)NC[C@H]1C , what is it?
True

And then Cc1ccccc1-c1ccc([C@H]2[C@@H](CO)N3CCCCN(Cc4cccnc4)C[C@H]23)cc1 , what is it?
True
